Experiment: P-glycoprotein substrates identified in KB-8-5-11 adenocarcinoma cell line, qHTS therapeutic library screen (AID 1346987); also: nearly all actives have a fitted effect of over 65% in size
Settings: KB-8-5-11 (P-gp overexpressing) viability, CellTiter-Glo, 72 h; series mostly up to 44.5 µM
Results filed as inconclusive are left out. Activity calls are given as the source filed them. Calls follow the shape of the dose curve; as a rule, active = well fitted inhibition curve with a large enough effect; inconclusive = small, poorly fitted or top-dose-only effect; inactive = flat fitted curve, though single readings scatter. Where a SMILES comes first, the peptide text is derived from it. [ ]: non-standard residue; d: D form. The star is where a group is joined. Dolaproine = CO[C@@H]([C@@H]1CCCN1)[C@@H](C)C(=O)O; Dil = CC[C@H](C)[C@H](NC)[C@@H](CC(=O)O)OC; Doe = c1ccc(C[C@H](N*)c2nccs2)cc1; Aib = CC(C)(N)C(=O)O
A correct response names exactly one class from active, inactive

# outcome recorded in this test, key = COC(=O)C1=COC(C)C2CN3CCC4(C(=O)Nc5ccccc54)C3CC12 (configuration not stated) inactive

# outcome recorded in this test, key = `C[C@]12CC[C@H]3[C@@H](CCC4=CC(=O)CC[C@@]43C)[C@@H]1CC[C@@H]2OC(=O)CCc1ccccc1` active

# outcome recorded in this test, key = `CCOP(=S)(OCC)SCSc1ccc(Cl)cc1` inactive

# outcome recorded in this test, key = `Cc1c(N2C(=O)[C@@H]3[C@H](O)CCN3C2=O)ccc(C#N)c1Cl` inactive

# outcome recorded in this test, key = `COC(=O)c1ccccc1C(=O)OC` inactive

# outcome recorded in this test, key = `C[C@H]1C/C=C/[C@H]2[C@@H]3O[C@]3(C)[C@@H](C)[C@H]3[C@H](Cc4ccccc4)NC(=O)[C@]32OC(=O)O/C=C/[C@@](C)(O)C1=O` active

# outcome recorded in this test, key = `C[C@@H](N)C(=O)c1ccccc1` inactive

# outcome recorded in this test, key = CC[C@H](C)[C@@H]([C@@H](CC(=O)N1CCC[C@H]1[C@H](OC)[C@@H](C)C(=O)N[C@@H](Cc1ccccc1)c1nccs1)OC)N(C)C(=O)[C@@H](NC(=O)C(C)(C)N)C(C)C (H-[Aib]V[Dil][Dolaproine]-Doe) active

# outcome recorded in this test, key = `O=C1NC(=O)c2c1c1c3ccccc3n3c1c1c2c2ccccc2n1C1CCC3O1` active

# outcome recorded in this test, key = `CN1Cc2c(ccc3c2OCO3)[C@@H]2[C@H]1c1cc3c(cc1C[C@@H]2O)OCO3` active

# outcome recorded in this test, key = C1CN(P2(N3CC3)=NP(N3CC3)(N3CC3)=NP(N3CC3)(N3CC3)=N2)CCO1 (configuration not stated) inactive

# outcome recorded in this test, key = COC[C@]12CN(C)C3C4[C@H](OC)[C@H]1C3(C(OC)C[C@H]2O)[C@H]1C[C@@]2(O)[C@H](OC(=O)c3ccccc3)[C@@H]1[C@]4(O)[C@@H](O)[C@@H]2OC (some centres not stated) inactive

# outcome recorded in this test, key = `OCc1nnc2n1-c1ccc(Cl)cc1C(c1ccccc1Cl)=NC2` inactive

# outcome recorded in this test, key = Cc1cccc(NC(=O)NC2N=C(c3ccccc3)c3ccccc3N(CC(=O)c3ccccc3C)C2=O)c1 (configuration not stated) inactive

# outcome recorded in this test, key = `CS[C@]1(CO)C(=O)N2[C@H]3C(=CC=C[C@@H]3O)C[C@@]2(SC)C(=O)N1C` inactive

# outcome recorded in this test, key = CN(C)[C@@H]1C(=O)C(C(N)=O)=C(O)[C@@]2(O)C(=O)C3=C(O)c4c(O)ccc(Cl)c4[C@@](C)(O)C3C[C@@H]12 (some centres not stated) inactive

# outcome recorded in this test, key = Fc1cc(F)c2c(c1)[C@H]1C=CC[C@H]1C(c1cccnc1)N2 (some centres not stated) active
